Target: M-phase inducer phosphatase 3 (Homo sapiens, UniProt P30307)
Sequence (P30307 whole entry): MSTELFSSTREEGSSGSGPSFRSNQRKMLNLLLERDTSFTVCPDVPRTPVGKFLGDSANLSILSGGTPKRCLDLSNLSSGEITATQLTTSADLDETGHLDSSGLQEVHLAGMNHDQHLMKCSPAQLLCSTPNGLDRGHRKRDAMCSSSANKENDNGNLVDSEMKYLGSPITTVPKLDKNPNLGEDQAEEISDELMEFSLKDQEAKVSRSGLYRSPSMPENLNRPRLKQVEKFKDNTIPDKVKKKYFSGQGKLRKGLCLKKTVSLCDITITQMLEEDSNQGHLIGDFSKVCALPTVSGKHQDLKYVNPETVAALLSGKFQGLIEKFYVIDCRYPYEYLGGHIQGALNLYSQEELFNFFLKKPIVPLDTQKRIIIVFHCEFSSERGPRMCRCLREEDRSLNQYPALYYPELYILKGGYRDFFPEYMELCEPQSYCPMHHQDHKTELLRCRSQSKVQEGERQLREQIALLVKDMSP
pKi: −log10 of the molar value.
Literature survey of pKi (system: M-phase inducer phosphatase 3 (Homo sapiens, UniProt P30307)).
experimental.endpoint: pKi

[[record]]
compound = "CCCCCNC(=O)C(Cc1ccc(N(C(=O)C(=O)O)c2ccccc2C(=O)O)c2ccccc12)NC(C)=O (stereo not given)"
assay_system = "M-phase inducer phosphatase 3 (Homo sapiens, UniProt P30307)"
modifier = "<"
quantitative_result = 3.52

[[record]]
compound = "COC(=O)c1c(O)cccc1OCCCCNC(=O)[C@H](Cc1ccc(OC(C)C(=O)O)c(C(=O)O)c1)NC(=O)[C@H](Cc1ccccc1)NC(=O)OC(C)(C)C (stereo not given in full)"
assay_system = "M-phase inducer phosphatase 3 (Homo sapiens, UniProt P30307)"
modifier = "<"
quantitative_result = 4.52

[[record]]
compound = "Nc1cccc2c(Nc3cccc(C(=O)O)c3)cccc12"
assay_system = "M-phase inducer phosphatase 3 (Homo sapiens, UniProt P30307)"
modifier = "="
quantitative_result = 5.40

[[record]]
compound = "CCOC(=O)c1cccc(Nc2cc(OC)cc3ccccc23)c1"
assay_system = "M-phase inducer phosphatase 3 (Homo sapiens, UniProt P30307)"
modifier = "="
quantitative_result = 5.72

[[record]]
compound = "CCc1cc(CC(NC(C)=O)C(=O)NCCCCC(=O)N[C@@H](CCSC)C(=O)O)ccc1N(C(=O)C(=O)O)c1ccccc1C(=O)O (stereo not given in full)"
assay_system = "M-phase inducer phosphatase 3 (Homo sapiens, UniProt P30307)"
modifier = "<"
quantitative_result = 3.52

